Where do the numbers come from? From patent US8546377B2.

Reported EC50 values for the following compounds.
# TARGET_OF_ASSAY: 5HT2B receptors (Homo sapiens, UniProt P41595)
# Construct: expressed in transfected cells; host or cells: CHO-K1 cells
# Sequence (P41595 whole entry): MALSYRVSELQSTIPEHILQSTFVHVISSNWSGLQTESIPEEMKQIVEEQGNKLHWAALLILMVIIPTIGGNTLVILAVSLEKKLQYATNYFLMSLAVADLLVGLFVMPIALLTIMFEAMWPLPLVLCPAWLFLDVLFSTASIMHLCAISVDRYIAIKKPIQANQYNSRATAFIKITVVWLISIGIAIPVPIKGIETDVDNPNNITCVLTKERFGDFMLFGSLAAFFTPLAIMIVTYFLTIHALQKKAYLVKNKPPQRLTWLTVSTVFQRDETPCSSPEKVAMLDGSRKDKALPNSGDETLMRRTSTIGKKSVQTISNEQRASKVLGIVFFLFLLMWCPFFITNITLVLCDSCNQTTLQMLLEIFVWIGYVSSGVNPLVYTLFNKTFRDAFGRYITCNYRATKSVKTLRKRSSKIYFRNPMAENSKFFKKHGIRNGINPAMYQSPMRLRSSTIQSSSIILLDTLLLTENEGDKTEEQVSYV
# ASSAY_EXPLANATION: Human 5-HT2B functional assay in CHO-K1 cells (calcium flux, FLIPR)
# Type: cell-based
# DETAILS: CHO-K1 cells over-expressing 5HT2B, calcium flux; read-out: EC50 (μM), 5-HT2B Agonist Activity

Take a look at these entries with their results.
O=C1CC2CNCCN2c2cc(CCc3cc(F)cc(F)c3)ccc2N1 (stereo not drawn) [Example 147]; > 10 µM
CS(=O)(=O)c1cccc(-c2ccc3c(c2)N2CCNC[C@@H]2CCO3)c1 [Example 196]; > 10 µM
O=C1CC2CNCCN2c2cc(COc3ccccc3F)ccc2N1 (stereo not drawn) [Example 113]; 0.2 µM
CS(=O)(=O)c1cccc(-c2cccc3c2OCC[C@H]2CNCCN32)c1 [Example 239]; > 10 µM
Cc1ccccc1-c1ccc2c(c1)N1CCNC[C@@H]1CCO2 [Example 189]; 1 µM

Quick one: EC50 of Oc1cccc(-c2ccc3c(c2)N2CCNC[C@@H]2CCO3)c1 [Example 201] ?
> 10 µM

Entry CC(=O)c1cccc(-c2ccc3c(c2)N2CCNC[C@@H]2CCO3)c1 [Example 198] : reported EC50 = ?
1 µM

Which EC50 value is on record for CCOC(=O)c1ccc2c(c1)N1CCNCC1CC(=O)N2 (stereo not drawn) [Example 50] ?
> 10 µM

// query EC50 value for entry Cc1ccc(-c2ccc3c(c2)N2CCNC[C@@H]2CCO3)cc1 [Example 191]
> 10 µM

What does the record list as EC50 for O=C1CC2CNCCN2c2cc(-c3cccc(-c4ccccc4)c3)ccc2N1 (stereo not drawn) [Example 59] ?
> 10 µM

Requested field: EC50. Item: O=C1CC2CNCCN2c2cc(-c3cccc(OC(F)(F)F)c3)ccc2N1 (stereo not drawn) [Example 93]
> 10 µM

Form field: reported EC50 of C[C@@H](Cc1ccccc1)Oc1ccc2c(c1)N1CCNC[C@@H]1CC(=O)N2 [Example 163]
> 10 µM

# EC50 lookup, item O=C1CC2CNCCN2c2cc(-c3cc4ccccc4s3)ccc2N1 (stereo not drawn) [Example 75]
> 10 µM

Param item = O=C1C[C@H]2CNCCN2c2cc(OCCc3cccc(C(F)(F)F)c3)ccc2N1 [Example 173] ; retrieve measured EC50.
> 10 µM

Entry c1ccc(CCc2ccc3c(c2)N2CCNC[C@@H]2CCO3)cc1 [Example 212] : reported EC50 = ?
0.4 µM

Fill in the blank: the reported EC50 of O=C1CC2CNCCN2c2cc(-c3cccc(C(F)(F)F)c3)ccc2N1 (stereo not drawn) [Example 90] is ____.
> 10 µM

May I ask what EC50 has been recorded for O=C1C[C@H]2CNCCN2c2cc(OCCc3cccc(Cl)c3)ccc2N1 [Example 175] ?
0.5 µM

Any idea what its EC50 is? The compound is CC(C)Oc1cccc(-c2ccc3c(c2)N2CCNCC2CC(=O)N3)c1 (stereo not drawn) [Example 94]
> 10 µM

----------
# TARGET_OF_ASSAY: 5HT2C receptors (Homo sapiens, UniProt P28335)
# Sequence (P28335 33-458): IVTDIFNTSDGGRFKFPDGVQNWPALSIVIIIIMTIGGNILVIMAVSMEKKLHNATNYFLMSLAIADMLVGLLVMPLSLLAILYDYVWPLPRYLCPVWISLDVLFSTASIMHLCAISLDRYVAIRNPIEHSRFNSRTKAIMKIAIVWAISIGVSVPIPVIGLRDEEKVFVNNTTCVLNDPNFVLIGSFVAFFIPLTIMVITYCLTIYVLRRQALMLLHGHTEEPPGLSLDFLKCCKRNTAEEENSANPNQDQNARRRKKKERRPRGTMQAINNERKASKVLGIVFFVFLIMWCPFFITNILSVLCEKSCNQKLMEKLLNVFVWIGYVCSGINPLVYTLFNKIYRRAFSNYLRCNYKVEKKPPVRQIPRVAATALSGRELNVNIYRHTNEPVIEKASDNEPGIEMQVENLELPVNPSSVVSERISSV
# ASSAY_EXPLANATION: Human 5-HT2C functional assay in 1321N1 cells (intracellular calcium, FLIPR)
# Format: cell-based
# Set-up: expressed in transfected cells; host or cells: 1321N1 cells
# DETAILS: 1321N1 cells stably transfected, maximum calcium response; read-out: EC50 (μM), 5-HT2c Agonist Activity
Listed here are compounds together with their documented EC50.
Please give a number only; it is taken to be in µM.

O=C1C[C@H]2CNCCN2c2cc(Cl)c(Cl)cc2N1; 0.0032
CN1CCN2c3ccccc3NC(=O)CC2C1 (centres unmarked); 0.0663
N#Cc1ccc2c(c1)N1CCNCC1CC(=O)N2 (centres unmarked); 0.0938
Clc1cccc(CN2CCC3CNCCN3c3ccccc32)c1 (centres unmarked); 0.0697
Cc1cccc2c1NC(=O)CC1CNCCN21 (centres unmarked); 0.0068
O=C1CC2CNCCN2c2ccc(Br)cc2N1 (centres unmarked); 0.0683
O=C1CC2CNCCN2c2cc(CCc3ccccc3)ccc2N1 (centres unmarked); 0.0043
O=C1CC2CNCCN2c2cc(C(F)(F)F)ccc2N1 (centres unmarked); 0.0204

Consider the compound O=C1CC2CNCCN2c2ccccc2N1 (centres unmarked) and give its measured EC50.
0.0135

// query EC50 value for entry CCN1CCN2c3ccccc3NC(=O)CC2C1 (centres unmarked)
0.165

----------
# TARGET_OF_ASSAY: 5HT2C receptors (Homo sapiens, UniProt P28335)
# ASSAY_EXPLANATION: Human 5-HT2C functional assay in CHO-K1 cells (calcium flux, FLIPR)
# Assay type: cell-based
# Set-up: expressed in transfected cells; host or cells: CHO-K1 cells
Each record here notes measured pEC50.
Schema: pEC50 number; meaning minus log10 of the concentration expressed in molar units.

Below, each entry is followed by its recorded pEC50 result.
C[C@H]1C[C@H]2CNCCN2c2ccccc2O1 (single isomer, unassigned); 7.05
Cc1cc(Cl)cc2c1OCC[C@H]1CNCCN21; 8.10

Name the recorded pEC50 for CN1CCC2CNCCN2c2ccc(Cl)cc21 (centres unmarked) .
7.30

# input molecule: O=C1C[C@H]2CNCCN2c2cc(Cl)c(Cl)cc2N1 ; wanted: its pEC50
9.10

Looking for the measured pEC50 of CN1CCN2c3cccc(F)c3NC(=O)C[C@H]2C1 , can you help?
7.52

----------
# TARGET_OF_ASSAY: 5HT2C receptors (Homo sapiens, UniProt P28335)
# ASSAY_EXPLANATION: Human 5-HT2C functional assay in 1321N1 cells (intracellular calcium, FLIPR)
# Type: cell-based
# Design: expressed in transfected cells; host or cells: 1321N1 cells
# DETAILS: 1321N1 cells stably transfected, maximum calcium response; read-out: EC50 (μM), 5-HT2c Agonist Activity
Decide using EC50 alone. Strictly below 0.03 µM: Condition met. Equal to or above 0.03 µM: Condition not met.

Example entries and their recorded answers appear below.
Brc1ccc2c(c1)NCCC1CNCCN21 (centres unmarked) [Example 19]; Condition met
O=C1CC2CNCCN2c2cccc(F)c2N1 (centres unmarked) [Example 32]; Condition met
O=C1CC2CNCCN2c2cc(-c3ccccc3)ccc2N1 (centres unmarked) [Example 5]; Condition not met

Attention now turns to another entry.
# check: EC50 < 0.03 µM for O=C1CC2CNCCN2c2cc(/C=C/c3cccc(Cl)c3)ccc2N1 (centres unmarked) [Example 25]
Condition met

----------
# TARGET_OF_ASSAY: 5HT2C receptors (Homo sapiens, UniProt P28335)
# ASSAY_EXPLANATION: Human 5-HT2C functional assay in CHO-K1 cells (calcium flux, FLIPR)
# Assay type: cell-based
# Design: expressed in transfected cells; host or cells: CHO-K1 cells
# DETAILS: CHO-K1, read-out: Emax (%), 5-HT2c Agonist Activity, CHO-K1 cells; percentage relative to the effect of serotonin
OBSERVABLE: Emax (%)
Entry rule: numbers only, all in %.

# example entries with known answers
c1cc(-c2ccncc2)c2c(c1)N1CCNC[C@@H]1CCO2; 85
CCN1CCN2c3ccccc3OCC[C@H]2C1; 100
Fc1ccc2c(c1)OCC[C@@H]1CNCCN21; 90
Fc1cccc2c1OCC[C@@H]1CNCCN21; 90
Brc1cccc2c1OCC[C@H]1CNCCN21; 100

Entry CN1CCN2c3cccc(F)c3OCC[C@H]2C1 : reported Emax = ?
85

I have this molecule here, Cc1ccc2c(c1)N1CCNC[C@H]1CCO2 , and I need its recorded Emax.
90

Given the entry Cc1cc(Cl)cc2c1OCC[C@H]1CNCCN21 , report its measured Emax.
85

Quick one: Emax of Fc1ccc2c(c1F)OCC[C@H]1CNCCN21 ?
100

Endpoint output: Emax of CN1CCN2c3cc(Cl)ccc3NC(=O)C[C@H]2C1 . Value?
90

Fill in the blank: the reported Emax of [2H]c1ccc2c(c1)OCC[C@H]1CNCCN21 is ____.
95

I would be grateful if you could share the reported Emax for [2H]c1ccc2c(c1)N1CCNC[C@@H]1CCO2 .
90

Which measured Emax value corresponds to Clc1cc(Cl)c2c(c1)N1CCNC[C@@H]1CCO2 ?
70

Return reported Emax; argument: Clc1ccc2c(c1)OCC[C@@H]1CNCCN21
100

Report Emax for c1ccc2c(c1)OCC[C@@H]1CNCCN21 please.
95

Give the measured Emax of CN1CCN2c3ccccc3NC(=O)CC2C1 (centres unmarked) .
100

For the molecule Fc1ccc2c(c1)N1CCNC[C@H]1CCO2 , what Emax is on record?
80

Suppose we examine the molecule COc1ccc2c(c1)OCC[C@H]1CN(C)CCN21 ; what Emax value has been reported?
50

Tell me the measured Emax of O=C1CC2CNCCN2c2cccc(F)c2N1 (centres unmarked) , please.
100

I'd like to know its Emax. The molecule in question is CCc1ccc2c(c1)N1CCNC[C@@H]1CCO2
70

Find the recorded Emax belonging to Cc1ccc2c(c1)NC(=O)CC1CNCCN21 (centres unmarked) and report it.
100

I would be grateful if you could share the reported Emax for O=C1CC2CNCCN2c2ccc(Cl)cc2N1 (centres unmarked) .
90

Please give the measured Emax for this molecule: Nc1ccc2c(c1)OCC[C@H]1CNCCN21
80
